# Experimental System: CH505.M21D8gp120/293F
# Test: ELISA
For each entry below, report its LogAUC value.
Answers are plain numbers.

CH491 (antibody, V domains shown, also called CH235.7; DH491) VH: QVQLVQSGAAVKRPGASVTISCRASGYTFTTYYIHWVRQAPGQGLELMGWINPRGGRTDYSYRFEDRVSMYRDTSMSIVYMDLRNLKSADTAVYYCVRNVGTSGSLLHYDFWGQGSLVTVSS VL: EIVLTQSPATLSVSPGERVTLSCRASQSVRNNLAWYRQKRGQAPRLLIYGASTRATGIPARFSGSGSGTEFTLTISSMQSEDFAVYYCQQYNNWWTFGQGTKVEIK | 0
CH557 (antibody, V domains shown, also called CH235.12; CH557_4A/293i) VH: QVRLAQYGGGVKRLGATMTLSCVASGYTFNDYYIHWVRQAPGQGFELLGYIDPANGRPDYAGALRERLSFYRDKSMETLYMDLRSLRYDDTAMYYCVRNVGTAGSLLHYDHWGSGSPVIVSS VL: EIVLTQSPATLSASPGERVTLTCRASRSVRNNVAWYQHKGGQSPRLLIYDASTRAAGVPARFSGSASGTEFTLAISNLESEDFTVYFCLQYNNWWTFGQGTRVDIK | 0.19
CH235 (antibody, V domains shown, also called CH235_4A) VH: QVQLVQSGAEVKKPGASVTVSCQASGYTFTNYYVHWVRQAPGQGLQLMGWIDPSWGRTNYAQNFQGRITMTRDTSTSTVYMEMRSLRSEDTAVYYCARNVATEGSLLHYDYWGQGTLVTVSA VL: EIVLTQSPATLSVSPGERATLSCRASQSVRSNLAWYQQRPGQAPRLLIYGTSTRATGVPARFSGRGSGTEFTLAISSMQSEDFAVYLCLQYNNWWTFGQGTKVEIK | 0

Entry CH241 (antibody, V domains shown) VH: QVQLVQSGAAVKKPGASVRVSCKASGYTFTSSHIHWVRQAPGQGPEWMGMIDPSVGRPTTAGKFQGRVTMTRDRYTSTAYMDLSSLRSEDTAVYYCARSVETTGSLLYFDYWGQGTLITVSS VL: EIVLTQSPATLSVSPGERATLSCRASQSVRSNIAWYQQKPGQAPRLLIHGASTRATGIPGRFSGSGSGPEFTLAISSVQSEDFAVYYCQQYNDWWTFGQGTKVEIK has what LogAUC? 4.82

Where these numbers come from: patent US10450368
